Provenance of the data: PubChem BioAssay AID1159580

assay: chemical genetic growth profiling, strain panel (AID 1159580);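 further: tested at 20 µM; growth read once vehicle control cultures reached saturation at 30 °C; 1 = growth at the plate median or of vehicle wells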; settings: S. cerevisiae deletion strains, growth OD, locus YBR160W, strain CDC28
The campaign covered roughly 5,500 compounds. About 2,000 (36%) were called active. Not shown: some 18% with an inconclusive outcome. No stated cut-off is given here; in the data, active means normalized growth mostly below about 0.91 (no sharp cut-off); inconclusive means no clear call, values can overlap the other calls; inactive means mostly above about 0.92. Some of the results follow.
Classes to choose from: y for active, n for inactive

Previously resolved entries follow.
- SMILES_INPUT: "COc1ccc(NC(=O)O/N=C(/N)c2ccc(Oc3c(Cl)cncc3Cl)cc2)cc1"
  GROUP: "n"
- SMILES_INPUT: "NCCCN=c1ccc2c3c1c(O)c1c(O)ccc(=O)c1c3[nH]n2CCNCCO"
  GROUP: "n"
- SMILES_INPUT: "C/C(=N/NC(N)=S)c1ccc(Oc2c(Cl)cncc2Cl)cc1"
  GROUP: "n"
- SMILES_INPUT: "Cn1c([N+](=O)[O-])cnc1/C=C(\\C#N)C(=O)Nc1ccc(F)cc1"
  GROUP: "y"
- SMILES_INPUT: "O=C(CCN1CCCCC1)c1ccc(-c2ccccc2)cc1"
  GROUP: "n"

Let us examine a further case.
Data request: Answer briefly: the call reported for NC(N)=Nc1nc(-c2cc(Cl)sc2Cl)cs1 in this assay.
Data returned: n

* * *

assay: chemical genetic growth profiling, strain panel (AID 1159580);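 further: tested at 20 µM; growth read once vehicle control cultures reached saturation at 30 °C; 1 = growth at the plate median or of vehicle wells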; settings: S. cerevisiae deletion strains, growth OD, locus YBR023C, strain chs3, stronger effect = lower value
The whole screen tested about 5,500 compounds, of which about 2,000 (36%) were called active. About 18% were inconclusive and are not listed. Some of the results follow.
EXPERIMENTAL_ENDPOINT: normalized growth
Number, no unit, nothing else.

The cases that follow already have their normalized growth on record.
- COMPOUND: "CN=C(NC#N)NCCSCc1nc(N=C(N)N)cs1"
  EXPERIMENTAL_ENDPOINT: "normalized growth"
  RECORDED_NUMBER: 0.991
- COMPOUND: "C=CC1=C(C(=O)O)N2C(=O)[C@@H](NC(=O)/C(=N/O)c3csc(N)n3)[C@H]2SC1"
  EXPERIMENTAL_ENDPOINT: "normalized growth"
  RECORDED_NUMBER: 1.02
- COMPOUND: "CC(=O)O[C@H]1C(=O)[C@@]2(C)C([C@H](OC(=O)c3ccccc3)[C@]3(O)C[C@H](OC(=O)[C@H](O)[C@@H](NC(=O)c4ccccc4)c4ccccc4)C(C)=C1C3(C)C)[C@]1(OC(C)=O)CO[C@@H]1C[C@@H]2O (some centres undefined)"
  EXPERIMENTAL_ENDPOINT: "normalized growth"
  RECORDED_NUMBER: 1.01
- COMPOUND: "CC(=O)O[C@H]1C(=O)[C@@]2(C)C([C@H](OC(=O)c3ccccc3)[C@]3(O)C[C@H](O)C(C)=C1C3(C)C)[C@]1(OC(C)=O)CO[C@@H]1C[C@@H]2O (some centres undefined)"
  EXPERIMENTAL_ENDPOINT: "normalized growth"
  RECORDED_NUMBER: 0.998
- COMPOUND: "O=C(O)COc1cc(Cl)c(Cl)cc1Cl"
  EXPERIMENTAL_ENDPOINT: "normalized growth"
  RECORDED_NUMBER: 1

Data request: # lookup: normalized growth of CC(C)[N+](C)(CCOC(=O)C1c2ccccc2Oc2ccccc21)C(C)C
Data returned: 1.02
